Test system: TPA-induced inflammatory cell infiltration into the dermis
assay: Inhibition of TPA-induced inflammatory cell infiltration into the dermis of mice
Format: in vivo, BALB/c mice
runConditions: IC50 without auranofin divided by IC50 with auranofin (0.2%)
Each entry below lists one item and its recorded Synergistic factor value.
readoutLabel: Synergistic factor

>>> reported("C[C@]12CCC(=O)C=C1CC[C@@H]1[C@@H]2[C@@H](O)C[C@@]2(C)[C@H]1CC[C@]2(O)C(=O)CO [Hydrocortisone, hydrocortisone]")
1.94
>>> reported("C[C@@H]1C[C@H]2[C@@H]3CCC4=CC(=O)C=C[C@]4(C)[C@@]3(Cl)[C@@H](O)C[C@]2(C)[C@@]1(OC(=O)c1ccco1)C(=O)CCl [Mometasone furoate, mometasone furoate]")
37.50
>>> reported("CC1(C)O[C@@H]2C[C@H]3[C@@H]4C[C@H](F)C5=CC(=O)C=C[C@]5(C)[C@@]4(F)[C@@H](O)C[C@]3(C)[C@]2(C(=O)CO)O1 [Fluocinolone acetonide, fluocinolone acetonide]")
2.27
>>> reported("CCC(=O)OCC(=O)[C@@]1(OC(=O)CC)[C@@H](C)C[C@H]2[C@@H]3CCC4=CC(=O)C=C[C@]4(C)[C@@]3(F)[C@@H](O)C[C@@]21C [Betamethasone dipropionate, betamethasone dipropionate]")
4.44

###

Tested on: TPA-induced epidermal hyperplasia
assay: Inhibition of TPA-induced epidermal hyperplasia (epidermal thickness) on back skin of mice
Format: in vivo, BALB/c mice
runConditions: ranking in text
readoutLabel: Potency for inhibition of TPA-induced epidermal hyperplasia (in words)

>>> reported("C[C@]12CCC(=O)C=C1CC[C@@H]1[C@@H]2[C@@H](O)C[C@@]2(C)[C@H]1CC[C@]2(O)C(=O)CO [Hydrocortisone, hydrocortisone]")
"low to medium potencies"
>>> reported("CC(=O)OCC(=O)[C@@]1(O)CC[C@H]2[C@@H]3CCC4=CC(=O)CC[C@]4(C)[C@H]3[C@@H](O)C[C@@]21C [Hydrocortisone acetate, hydrocortisone acetate]")
"low to medium potencies"

###

Tested on: TPA-induced inflammatory cell infiltration into the dermis
assay: Inhibition of TPA-induced inflammatory cell infiltration into the dermis of mice
Type: in vivo, BALB/c mice
runConditions: from IC50 read from curve; hydrocortisone acetate = 1.0
Experimental: The mice were housed in stainless steel cages, 6 mice per cage under normal laboratory conditions (room temperature at about 22° C.) at least 7 days before the experiments for acclimatization. […] Infiltration of inflammatory cells was determined by the same image analysis system using the section taken from the block of mouse skin embedded in paraffin wax or Spurr's resin and stained with haematoxylin and eosin or toluidine blue respectively. […]
readoutLabel: Relative potency

>>> reported("CCC(=O)OCC(=O)[C@@]1(OC(=O)CC)[C@H](C)C[C@H]2[C@H]3[C@H]([C@@H](O)C[C@@]21C)[C@@]1(C)C=CC(=O)C=C1C[C@H]3Cl [Alclometasone dipropionate]")
183.33
>>> reported("C[C@@H]1C[C@H]2[C@@H]3CCC4=CC(=O)C=C[C@]4(C)[C@@]3(F)[C@@H](O)C[C@]2(C)[C@@]1(O)C(=O)CO")
26.83
>>> reported("CCC(=O)OCC(=O)[C@@]1(OC(=O)CC)[C@@H](C)C[C@H]2[C@@H]3CCC4=CC(=O)C=C[C@]4(C)[C@@]3(F)[C@@H](O)C[C@@]21C [Betamethasone dipropionate, betamethasone dipropionate]")
275.0
>>> reported("CC1(C)O[C@@H]2C[C@H]3[C@@H]4CCC5=CC(=O)CC[C@]5(C)[C@@]4(F)[C@@H](O)C[C@]3(C)[C@]2(C(=O)CCl)O1 [Halcinonide]")
183.33
>>> reported("CC1(C)O[C@@H]2C[C@H]3[C@@H]4CCC5=CC(=O)C=C[C@]5(C)[C@@]4(F)[C@@H](O)C[C@]3(C)[C@]2(C(=O)CO)O1 [Triamcinolone acetonide]")
157.14
>>> reported("C[C@@H]1C[C@H]2[C@@H]3CCC4=CC(=O)C=C[C@]4(C)[C@@]3(Cl)[C@@H](O)C[C@]2(C)[C@@]1(OC(=O)c1ccco1)C(=O)CCl [Mometasone furoate, mometasone furoate]")
366.67
>>> reported("C[C@]12CCC(=O)C=C1CC[C@@H]1[C@@H]2[C@@H](O)C[C@@]2(C)[C@H]1CC[C@]2(O)C(=O)CO [Hydrocortisone, hydrocortisone]")
1.83

###

Each entry below lists one item and its recorded IC50 value.
Tested on: TPA-induced epidermal hyperplasia
assay: Inhibition of TPA-induced epidermal hyperplasia (epidermal thickness) on back skin of mice
Assay type: in vivo, BALB/c mice
runConditions: Mus musculus, topical, Hill equation fit; means ± SD; steroid premixed with TPA, topical; read-out: IC50 (M × 10^−4)
readoutLabel: IC50 (µM)

>>> reported("CC(=O)OCC(=O)[C@@]1(O)CC[C@H]2[C@@H]3CCC4=CC(=O)CC[C@]4(C)[C@H]3[C@@H](O)C[C@@]21C [Hydrocortisone acetate, hydrocortisone acetate]")
3670
>>> reported("C[C@@H]1C[C@H]2[C@@H]3CCC4=CC(=O)C=C[C@]4(C)[C@@]3(F)[C@@H](O)C[C@]2(C)[C@@]1(O)C(=O)CO [Dexamethasone]")
126
>>> reported("CC1(C)O[C@@H]2C[C@H]3[C@@H]4C[C@H](F)C5=CC(=O)C=C[C@]5(C)[C@@]4(F)[C@@H](O)C[C@]3(C)[C@]2(C(=O)CO)O1 [Fluocinolone acetonide, fluocinolone acetonide]")
39
>>> reported("C[C@]12CCC(=O)C=C1CC[C@@H]1[C@@H]2[C@@H](O)C[C@@]2(C)[C@H]1CC[C@]2(O)C(=O)CO [Hydrocortisone, hydrocortisone]")
4620
>>> reported("CC1(C)O[C@@H]2C[C@H]3[C@@H]4CCC5=CC(=O)CC[C@]5(C)[C@@]4(F)[C@@H](O)C[C@]3(C)[C@]2(C(=O)CCl)O1 [Halcinonide]")
97
>>> reported("CCC(=O)OCC(=O)[C@@]1(OC(=O)CC)[C@@H](C)C[C@H]2[C@@H]3CCC4=CC(=O)C=C[C@]4(C)[C@@]3(F)[C@@H](O)C[C@@]21C [Betamethasone dipropionate, betamethasone dipropionate]")
81

###

Test system: TPA-induced epidermal hyperplasia
assay: Inhibition of TPA-induced epidermal hyperplasia (epidermal thickness) on back skin of mice
Format: in vivo, BALB/c mice
runConditions: IC50 without auranofin divided by IC50 with auranofin (0.2%)
readoutLabel: Synergistic factor

>>> reported("C[C@]12CCC(=O)C=C1CC[C@@H]1[C@@H]2[C@@H](O)C[C@@]2(C)[C@H]1CC[C@]2(O)C(=O)CO [Hydrocortisone, hydrocortisone]")
2.05
>>> reported("CCC(=O)OCC(=O)[C@@]1(OC(=O)CC)[C@@H](C)C[C@H]2[C@@H]3CCC4=CC(=O)C=C[C@]4(C)[C@@]3(F)[C@@H](O)C[C@@]21C [Betamethasone dipropionate, betamethasone dipropionate]")
56.0
>>> reported("C[C@@H]1C[C@H]2[C@@H]3CCC4=CC(=O)C=C[C@]4(C)[C@@]3(Cl)[C@@H](O)C[C@]2(C)[C@@]1(OC(=O)c1ccco1)C(=O)CCl [Mometasone furoate, mometasone furoate]")
1.29
>>> reported("CC1(C)O[C@@H]2C[C@H]3[C@@H]4C[C@H](F)C5=CC(=O)C=C[C@]5(C)[C@@]4(F)[C@@H](O)C[C@]3(C)[C@]2(C(=O)CO)O1 [Fluocinolone acetonide, fluocinolone acetonide]")
13.13

###

Tested on: TPA-induced epidermal hyperplasia
assay: Inhibition of TPA-induced epidermal hyperplasia (epidermal thickness) on back skin of mice
Type: in vivo, BALB/c mice
runConditions: Mus musculus, topical, read-out: IC50 (M × 10^−4), Hill equation fit; means ± SD; steroid premixed with TPA, topical
pIC50: −log10 of the molar value.
readoutLabel: pIC50

>>> reported("CCC(=O)OCC(=O)[C@@]1(OC(=O)CC)[C@H](C)C[C@H]2[C@H]3[C@H]([C@@H](O)C[C@@]21C)[C@@]1(C)C=CC(=O)C=C1C[C@H]3Cl [Alclometasone dipropionate]")
4.05

###

Tested on: TPA-induced inflammatory cell infiltration into the dermis
assay: Inhibition of TPA-induced inflammatory cell infiltration into the dermis of mice
Type: in vivo, BALB/c mice
runConditions: from IC50 read from curve; hydrocortisone acetate = 1.0
Each entry below lists one item and its recorded Relative potency value.
readoutLabel: Relative potency

>>> reported("CC(=O)OCC(=O)[C@@]1(O)CC[C@H]2[C@@H]3CCC4=CC(=O)CC[C@]4(C)[C@H]3[C@@H](O)C[C@@]21C [Hydrocortisone acetate, hydrocortisone acetate]")
1.0
>>> reported("CC1(C)O[C@@H]2C[C@H]3[C@@H]4C[C@H](F)C5=CC(=O)C=C[C@]5(C)[C@@]4(F)[C@@H](O)C[C@]3(C)[C@]2(C(=O)CO)O1 [Fluocinolone acetonide, fluocinolone acetonide]")
440
>>> reported("C[C@H]1C[C@H]2[C@@H]3CCC4=CC(=O)C=C[C@]4(C)[C@@]3(F)[C@@H](O)C[C@]2(C)[C@@]1(O)C(=O)CO")
5.23
>>> reported("C[C@@H]1C[C@H]2[C@@H]3C[C@H](F)C4=CC(=O)C=C[C@]4(C)[C@H]3[C@@H](O)C[C@]2(C)[C@H]1C(=O)COC(=O)C(C)(C)C [Fluocortolone 21-pivalate]")
100.0
>>> reported("CCCCC(=O)O[C@]1(C(=O)CO)[C@@H](C)C[C@H]2[C@@H]3CCC4=CC(=O)C=C[C@]4(C)[C@@]3(F)[C@@H](O)C[C@@]21C [Betamethasone valerate, betamethasone valerate]")
169.23
